Hey, just so you know, these numbers are from PubChem BioAssay AID785.

target of assay: Serine/threonine-protein kinase PLK1 (Homo sapiens)
assay: PLK1 kinase inhibitor potency, dose response, biochemical, TR-FRET, IC50 (AID 785)
measurement context: recombinant human Plk1, fluorescence polarization phosphopeptide binding, 3 h
assay endpoint: IC50

{"compound": "Cc1cc(C(C#N)c2cccc(Cl)c2)n2ncnc2n1 (stereo not drawn)", "IC50": "5.98 µM"}
{"compound": "CCOC(=O)c1sc2nc[nH]c(=O)c2c1C", "IC50": "3.09 µM"}
{"compound": "Cc1nc2c([nH]1)C1(CCN(Cc3ccccc3)CC1)C(C#N)=C(N)O2", "IC50": "0.823 µM"}
{"compound": "CCc1nc2n[nH]c(N)c2c2c1CSC(C)(C)C2", "IC50": "5.1 µM"}
{"compound": "Cc1cccc(Nc2ncnc3nc[nH]c23)c1", "IC50": "2.23 µM"}

Dear reader, for each entry below, please note its IC50.
1. O=c1[nH]cnc2cc(-c3ccccc3)sc12
2. O=C(O)c1ccc2c(c1)[C@@H]1C=CC[C@@H]1[C@H](c1ccccn1)N2
3. c1ccc2c(-c3ccncc3)c[nH]c2c1
4. Nc1[nH]ncc1C(=O)Nc1cccc(C(F)(F)F)c1
5. CC1Cc2nc(SCC(=O)Nc3nccs3)n(C)c(=O)c2S1 (stereo not drawn)
6. COc1cccc(Nc2ncnc3nc[nH]c23)c1
7. N#C/C(=N\Nc1c(Cl)cccc1Cl)C(=O)NN

Solution:
["6.2 µM", "16.9 µM", "4.12 µM", "0.888 µM", "9.72 µM", "2.37 µM", "0.814 µM"]

----------
target of assay: Serine/threonine-protein kinase PLK1 (Homo sapiens) (UniProt P53350)
Sequence (P53350 whole entry, looked up): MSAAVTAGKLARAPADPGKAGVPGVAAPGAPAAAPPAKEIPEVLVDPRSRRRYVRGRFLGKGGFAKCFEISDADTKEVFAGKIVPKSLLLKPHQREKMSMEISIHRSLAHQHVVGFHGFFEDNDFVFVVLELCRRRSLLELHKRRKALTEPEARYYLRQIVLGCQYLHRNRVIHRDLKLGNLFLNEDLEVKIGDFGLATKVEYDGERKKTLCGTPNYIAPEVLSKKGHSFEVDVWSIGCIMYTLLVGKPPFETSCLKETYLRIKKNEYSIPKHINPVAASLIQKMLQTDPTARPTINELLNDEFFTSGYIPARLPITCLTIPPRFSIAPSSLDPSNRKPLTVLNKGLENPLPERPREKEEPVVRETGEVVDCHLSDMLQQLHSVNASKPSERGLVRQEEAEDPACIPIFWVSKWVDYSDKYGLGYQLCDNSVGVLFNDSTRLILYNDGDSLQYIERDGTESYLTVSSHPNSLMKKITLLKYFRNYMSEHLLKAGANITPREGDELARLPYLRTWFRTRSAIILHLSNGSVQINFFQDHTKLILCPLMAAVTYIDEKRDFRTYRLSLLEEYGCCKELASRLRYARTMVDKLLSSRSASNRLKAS
assay: PLK1 kinase inhibitor potency, dose response, biochemical, TR-FRET, IC50 (AID 785)
measurement context: recombinant human Plk1, fluorescence polarization phosphopeptide binding, 3 h
Would you mind telling me the reported IC50 of each entry?

Working through the 3 molecules below one at a time, give IC50 for each.
1. COc1cc(/C=C(\C#N)c2[nH]nc(N)c2C#N)cc(OC)c1O
2. CCOC(=O)c1c(-c2ccncc2)csc1N
3. Cc1cccc(N=Nc2c(N)n[nH]c2-c2ccc(Cl)cc2)c1

Solution:
1: 1.86 µM; 2: 7.01 µM; 3: 18.5 µM

Hello, I would appreciate it if you could give IC50 for each entry below.
1. Nc1[nH]ncc1N=Nc1ccc(Cl)cc1
2. N#Cc1c(-c2ccc3c(c2)OCO3)csc1N
3. COc1ccc(Cn2c(N)c(C(=O)NCc3ccco3)c3nc4ccccc4nc32)cc1OC

Solution:
2.22 µM
10.7 µM
8.82 µM
